Tested on: Staphylococcus aureus
assay_notes: Antibacterial activity against methicillin-sensitive Staphylococcus aureus ATCC 29213 after 16 to 20 hrs by broth microdilution method
Format: functional
Satisfied if MIC is below 2 µg/mL. Not satisfied if not; exact matches included in Not satisfied.

[[record]]
entry_smiles = "COc1ccc2oc(C3CN(C(=O)/C=C/c4cnc5c(c4)CCC(=O)N5)C3)c(C)c2c1"
assigned_label = "Satisfied"

[[record]]
entry_smiles = "O=C1CCc2cc(/C=C/C(=O)N3CC(COc4ccc5ccccc5c4)C3)cnc2N1"
assigned_label = "Not satisfied"

[[record]]
entry_smiles = "Cc1c(C2CN(C(=O)/C=C/c3cnc4c(c3)CCC(=O)N4)C2)oc2ccccc12"
assigned_label = "Satisfied"

[[record]]
entry_smiles = "Cc1ccc(OCC2CN(C(=O)/C=C/c3cnc4c(c3)CCC(=O)N4)C2)cc1"
assigned_label = "Satisfied"

